tested on: KG-1; experiment: In vitro antiproliferative assay (MTT), KG-1; format: cell-based; conditions: Homo sapiens, 72 h
experimental.readout: IC50 (µM)
One number for each entry, in µM.

Could you share what IC50 was measured for O=C(CCCCCCC(=O)Nc1nc2ccc(OC(F)(F)F)cc2s1)NO , tested on KG-1?
0.65

* * *

system: HEL; test: In vitro antiproliferative assay (MTT), HEL; assay type: cell-based; conditions: Homo sapiens, 72 h
experimental.readout: IC50 (nM)
Give bare numbers, in nM.

Could you share what IC50 was measured for O=C(CCCCCCC(=O)Nc1nc2ccc(OC(F)(F)F)cc2s1)NO , tested on HEL?
140
